Task for the reader: assign each of the following binders its reported Fold Increase of Mutant Kd Compared to MT4 Kd.
target: T1, recombinant gp120 of HIV-1 strain IIIb (HIV-1 strain IIIb, UniProt P04578 33-511); assay: SPR BIAcore, gp120 on chip
T1 construct: domain: gp120; also called IIIb-derived gp120; gp 120 (IIIB strain)
Write the value in fold as a bare number.

Q. What value of measured Fold Increase of Mutant Kd Compared to MT4 Kd is listed for Fab M556-3 (Fab, V domains shown) VH: LEQSGAEVKKPGASVKVSCQASGYRFSNFTVHWVRQAPGQRFEWMGWINPYNGNKEFSAKFQDRVTFTADTSANTAYMELRSLRSADTAVYYCARVGEWGWEMFRYDNYYMDVWGKGTTVIVSS VL: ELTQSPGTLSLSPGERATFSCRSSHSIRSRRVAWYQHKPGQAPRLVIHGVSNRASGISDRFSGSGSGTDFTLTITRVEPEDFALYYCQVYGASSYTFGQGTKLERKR ?
A. 63

Q. What value of measured Fold Increase of Mutant Kd Compared to MT4 Kd is listed for Fab M556-7 (Fab, V domains shown) VH: LEQSGAEVKKPGASVKVSCQASGYRFSNFTVHWVRQAPGQRFEWMGWINPYNGNKEFSAKFQDRVTFTADTSANTAYMELRSLRSADTAVYYCARVGEWGWEMRRFDNYYMDVWGKGTTVIVSS VL: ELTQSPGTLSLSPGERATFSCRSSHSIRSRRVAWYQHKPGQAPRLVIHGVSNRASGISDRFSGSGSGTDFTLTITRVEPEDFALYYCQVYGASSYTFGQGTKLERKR ?
A. 48.1

Q. What value of measured Fold Increase of Mutant Kd Compared to MT4 Kd is listed for Fab M556-2 (Fab, V domains shown) VH: LEQSGAEVKKPGASVKVSCQASGYRFSNFTVHWVRQAPGQRFEWMGWINPYNGNKEFSAKFQDRVTFTADTSANTAYMELRSLRSADTAVYYCARVGEWGWEQFRFDNYYMDVWGKGTTVIVSS VL: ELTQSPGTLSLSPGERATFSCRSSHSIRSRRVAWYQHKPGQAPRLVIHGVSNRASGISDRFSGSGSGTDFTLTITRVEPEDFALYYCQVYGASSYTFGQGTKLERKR ?
A. 14.3
